Below is a list of entries, each paired with its recorded viability at 18 h, 10 ug/mL value.
# measurement-description: Cytotoxicity against mouse macrophages assessed as cell viability at 10 ug/mL after 18 hrs by MTT assay
# Type: cell-based, Macrophage
# assay-setup: read-out: Activity

// query Given the compound N#Cc1ccccc1/C=N/NC(=O)c1ccncc1 , what is its reported viability at 18 h, 10 ug/mL?
// result 100%

// query Consider the compound shown here: O=C(N/N=C/c1cccc(Cl)c1)c1ccncc1 What is its recorded viability at 18 h, 10 ug/mL?
// result 100%

// query Look at this compound and give its reported viability at 18 h, 10 ug/mL. O=C(N/N=C/c1ccc(F)cc1)c1ccncc1
// result 97%

// query Bench note: what viability at 18 h, 10 ug/mL did O=C(N/N=C/c1ccc(Cl)cc1)c1ccncc1 show?
// result 97%

Others:
// query Form field: reported viability at 18 h, 10 ug/mL of COc1ccccc1/C=N/NC(=O)c1ccncc1
// result 100%

###

Listed next: entries and their corresponding viability at 18 h, 1 ug/mL.
# measurement-description: Cytotoxicity against mouse macrophages assessed as cell viability at 1 ug/mL after 18 hrs by MTT assay
# Type: cell-based, Macrophage
# assay-setup: read-out: Activity
# do not omit the unit; it follows the number

// query Field request: viability at 18 h, 1 ug/mL | item: O=C(N/N=C/c1ccc(Cl)cc1)c1ccncc1
// result 97%

// query Fill in the blank: the reported viability at 18 h, 1 ug/mL of O=C(N/N=C/c1cccc(Cl)c1)c1ccncc1 is ____.
// result 100%

// query Report viability at 18 h, 1 ug/mL for COc1ccccc1/C=N/NC(=O)c1ccncc1 please.
// result 100%

// query Item under review: N#Cc1ccccc1/C=N/NC(=O)c1ccncc1 . Reported viability at 18 h, 1 ug/mL?
// result 100%

// query Entry O=C(N/N=C/c1ccc(F)cc1)c1ccncc1 has what viability at 18 h, 1 ug/mL?
// result 100%

###

# System: Mycobacterium tuberculosis
# measurement-description: Antimycobacterial activity against rifampin and isoniazid-susceptible Mycobacterium tuberculosis H37Rv ATCC 27294 after 5 days by Alamar blue assay
# Type: functional
# assay-setup: 120 h
Measured MIC, listed per entry.
Dear colleague, please return just the value in µg/mL, with no unit written.

// query May I ask what MIC has been recorded for O=C(N/N=C/c1ccccc1Cl)c1ccncc1 ?
// result 1.25

// query Can you share its MIC? I mean this compound: COc1ccc(/C=N/NC(=O)c2ccncc2)cc1
// result 5

New cases:
// query So what's the measured MIC for this one? NNC(=O)c1ccncc1
// result 0.2

// query Form field: reported MIC of O=C(N/N=C/c1ccc([N+](=O)[O-])cc1)c1ccncc1
// result 1.25

// query MIC lookup needed for CO[C@H]1/C=C/O[C@@]2(C)Oc3c(C)c(O)c4c(O)c(c(/C=N/N5CCN(C)CC5)c(O)c4c3C2=O)NC(=O)/C(C)=C\C=C\[C@H](C)[C@H](O)[C@@H](C)[C@@H](O)[C@@H](C)[C@H](OC(C)=O)[C@@H]1C , thanks.
// result 1

// query Name the reported MIC value associated with the compound COc1ccccc1/C=N/NC(=O)c1ccncc1
// result 0.31

// query Can you look up the measured MIC of O=C(N/N=C/c1ccccc1[N+](=O)[O-])c1ccncc1 for me?
// result 5

// query If you can, please state the reported MIC value of O=C(N/N=C/c1ccc(Br)cc1)c1ccncc1 .
// result 5

// query Which MIC reading was recorded for the compound O=C(N/N=C/c1ccccc1F)c1ccncc1 ?
// result 3.12

// query Give the measured MIC of COc1cccc(/C=N/NC(=O)c2ccncc2)c1 .
// result 5
